Ref: patent US9273057B2

Target: CK2A1 (CK2α/β) (Homo sapiens, UniProt P68400)
Sequence (P68400 whole entry, species assumed): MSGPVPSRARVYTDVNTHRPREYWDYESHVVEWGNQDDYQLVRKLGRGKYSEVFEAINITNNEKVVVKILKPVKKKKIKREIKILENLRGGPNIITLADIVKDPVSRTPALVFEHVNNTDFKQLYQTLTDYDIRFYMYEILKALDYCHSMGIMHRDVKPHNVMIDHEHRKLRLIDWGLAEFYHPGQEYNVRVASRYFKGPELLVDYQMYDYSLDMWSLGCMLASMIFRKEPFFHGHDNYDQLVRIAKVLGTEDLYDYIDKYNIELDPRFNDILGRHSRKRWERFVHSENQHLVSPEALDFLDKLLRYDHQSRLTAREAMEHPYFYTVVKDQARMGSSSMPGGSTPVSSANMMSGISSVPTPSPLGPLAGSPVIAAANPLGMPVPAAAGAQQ
Sequence (P67870 whole entry partner, species assumed): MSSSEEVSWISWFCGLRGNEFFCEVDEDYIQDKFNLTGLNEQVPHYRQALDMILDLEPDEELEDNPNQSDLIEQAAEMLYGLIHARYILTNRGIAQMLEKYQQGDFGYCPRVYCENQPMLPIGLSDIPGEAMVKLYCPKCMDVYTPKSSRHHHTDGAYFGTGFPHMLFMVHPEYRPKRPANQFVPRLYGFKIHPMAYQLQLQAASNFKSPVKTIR
Assay: CK2 kinase assay, CK2A1 (CK2α/β)
Type: biochemical
Conditions: Table A; read-out: CK2A1 (CK2α/β) (IC50)
pIC50: −log10 of the molar value.
measurement name: pIC50

# molecule, study target, measurement name, recorded result
rows = [
    ("CN1CCC2CN(c3cc(C#N)cc(Nc4nc(NC5CC5)c5ncc(C#N)n5n4)c3Cl)CCC21 (stereo not shown)", "CK2A1 (CK2α/β) (Homo sapiens, UniProt P68400)", "pIC50", 8.53),
    ("CCNc1nc(Nc2cc(C#N)cc(N3CC[C@H]4NCCO[C@@H]4C3)c2Cl)nn2c(C#N)cnc12 (racemic)", "CK2A1 (CK2α/β) (Homo sapiens, UniProt P68400)", "pIC50", 8.44),
]

I. COC(=O)N1CCN(C2CN(c3cc(C#N)cc(Nc4nc(NC5CC5)c5ncc(C#N)n5n4)c3Cl)C2)CC1
II. N#Cc1cc(Nc2nc(NC3CC3)c3ncc(C#N)n3n2)c(Cl)c(N2CCC(NC3CS(=O)(=O)C3)CC2)c1
III. CC(C)(CO)N1CCC(c2cc(C#N)cc(Nc3nc(NC4CC4)c4ncc(C#N)n4n3)c2Cl)CC1
In: Hi! Can you put these in order of pIC50, lowest number first? Quick reminder: the answer is the labels in the order asked.
Out: II, III, I

A. N#Cc1cc(Nc2nc(NC3CC3)c3ncc(C#N)n3n2)c(Cl)c(N2CCN([C@H]3CCC[C@@H]3O)CC2)c1
B. CC(=O)N1CCC2CN(c3cc(C#N)cc(Nc4nc(NC5CC5)c5ncc(C#N)n5n4)c3Cl)CCC21 (stereo not shown)
In: For the pair A and B , which entry has the numerically smaller recorded pIC50? Give the chosen item's label as your response.
Out: A
